A collection of compounds and their measured pIC50
Biological target: cellular PARG (Homo sapiens)
Construct: endogenous in cells
Sequence (Q86W56 whole entry): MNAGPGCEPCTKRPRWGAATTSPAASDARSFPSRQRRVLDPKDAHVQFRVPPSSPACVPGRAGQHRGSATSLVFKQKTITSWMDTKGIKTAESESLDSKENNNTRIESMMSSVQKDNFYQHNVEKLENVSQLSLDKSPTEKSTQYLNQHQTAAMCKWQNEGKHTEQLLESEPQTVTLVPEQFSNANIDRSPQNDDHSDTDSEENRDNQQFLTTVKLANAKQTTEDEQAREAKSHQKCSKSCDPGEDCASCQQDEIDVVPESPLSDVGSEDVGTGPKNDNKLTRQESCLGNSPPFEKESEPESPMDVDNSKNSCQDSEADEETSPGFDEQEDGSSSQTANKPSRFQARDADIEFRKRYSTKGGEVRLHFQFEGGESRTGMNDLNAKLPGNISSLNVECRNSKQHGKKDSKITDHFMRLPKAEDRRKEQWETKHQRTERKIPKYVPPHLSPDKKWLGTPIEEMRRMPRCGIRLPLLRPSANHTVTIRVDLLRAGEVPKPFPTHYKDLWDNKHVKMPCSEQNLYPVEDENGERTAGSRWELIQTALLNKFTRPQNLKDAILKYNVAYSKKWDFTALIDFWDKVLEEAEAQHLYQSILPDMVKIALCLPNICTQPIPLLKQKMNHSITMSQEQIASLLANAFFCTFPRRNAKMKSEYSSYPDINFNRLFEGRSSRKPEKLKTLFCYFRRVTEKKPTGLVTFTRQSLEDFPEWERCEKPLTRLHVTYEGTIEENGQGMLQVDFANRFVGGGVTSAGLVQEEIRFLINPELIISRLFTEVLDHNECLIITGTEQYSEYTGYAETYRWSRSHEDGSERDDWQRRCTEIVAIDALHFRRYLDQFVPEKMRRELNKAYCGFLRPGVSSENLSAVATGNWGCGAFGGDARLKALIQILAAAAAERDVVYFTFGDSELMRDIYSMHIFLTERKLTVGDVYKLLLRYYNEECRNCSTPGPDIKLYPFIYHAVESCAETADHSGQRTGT
Assay: Nuclear PAR accumulation assay (immunofluorescence high-content imaging, MMS-treated HeLa cells)
Conditions: 1 hour compound then MMS 50 μg/mL for an additional hour
pIC50: −log10 of the molar value.

Below are worked cases with known answers.
>  <compound>
COC(=O)[C@@H]1N=C2N(Cc3cnn(C)c3)C(=O)c3cc(S(=O)(=O)NC4(C)CC4)ccc3N2[C@@H]1C

>  <pIC50>
6.00 to 7.00

$$$$
>  <compound>
C[C@@H]1CN=C2N(Cc3cnn(C)c3)C(=O)c3cc(S(=O)(=O)NC4(C)CC4)cc(N4CC(C)(C#N)C4)c3N21

>  <pIC50>
5.00 to 6.00

$$$$

Query: Record request: pIC50 value, item `C#C[C@@H]1CN=C2N(C)C(=O)c3cc(S(=O)(=O)NC4(C)CC4)cc(Cl)c3N21`
Result: > 7.00

Query: Record request: pIC50 value, item `C[C@@H]1CN=C2N(C)C(=O)c3cc(S(=O)(=O)NC4(C)CC4)cc(-c4ccccc4C#N)c3N21`
Result: 5.00 to 6.00

Query: Record request: pIC50 value, item `Cn1cc(CN2C(=O)c3cc(S(=O)(=O)NC4(C)CC4)ccc3N3C2=NC[C@H]3C#Cc2cnn(C)n2)cn1`
Result: > 7.00

Query: Record request: pIC50 value, item CN1C(=O)c2cc(S(=O)(=O)NC3(C)CC3)ccc2N2C1=NCC2C#Cc1cnc2cc(C(F)(F)F)cnn12 (centres unmarked)
Result: > 7.00

Query: Record request: pIC50 value, item `C#C[C@H]1CN=C2N(Cc3cnn(C)c3)C(=O)c3cc(S(=O)(=O)NC4(C)CC4)cc(Br)c3N21`
Result: 6.00 to 7.00

Query: Record request: pIC50 value, item `Cn1cc(CN2C(=O)c3cc(S(=O)(=O)NC4(C)CC4)ccc3N3C2=N[C@H]2CCOC[C@H]23)cn1`
Result: > 7.00

Query: Record request: pIC50 value, item `[2H]C([2H])(c1cnn(C)c1)N1C(=O)c2cc(S(=O)(=O)NC3(C)CC3)ccc2N2C1=NC[C@H]2C#Cc1cc(C)nn1C`
Result: > 7.00

Query: Record request: pIC50 value, item `CCN1C(=O)c2cc(S(=O)(=O)NC3(C)CC3)ccc2N2C1=NC[C@H]2C#Cc1c(F)cnn1C`
Result: > 7.00

* * *

Molecular target: cellular PARG (Homo sapiens)
Construct: endogenous in cells
Experiment: Nuclear PAR accumulation assay (immunofluorescence high-content imaging, MMS-treated HeLa cells)
Settings: 1 hour compound then MMS 50 μg/mL for an additional hour
pIC50: −log10 of the molar value.
measurementType: pIC50

Below are worked cases with known answers.
>  <smi>
[2H]C([2H])(c1cnn(C)c1)N1C(=O)c2cc(S(=O)(=O)NC3(C)CC3)c(NC)cc2N2C1=N[C@H]1CCC[C@H]12

>  <pIC50>
> 7.00

$$$$
>  <smi>
Cn1cc(CN2C(=O)c3cc(S(=O)(=O)NC4(C)CC4)ccc3N3C2=NC[C@H]3C2CCOCC2)cn1

>  <pIC50>
6.00 to 7.00

$$$$

Query: Record request: pIC50 value, item `C[C@@H]1CN=C2N(Cc3cnn(C)c3)C(=O)c3cc(S(=O)(=O)NC4(C)CC4)cc(N4CC[C@@H](N)C4)c3N21`
Result: 6.00 to 7.00

Query: Record request: pIC50 value, item `C[C@@H]1C[C@H](C)N2C(=N1)N(Cc1cnn(C)c1)C(=O)c1cc(S(=O)(=O)NC3(C)CC3)ccc12`
Result: 6.00 to 7.00

Each recorded value in this set is attributed to patent US20260285875A1.
